experiment: Pharmacokinetics in Beagle dogs, single intravenous injection; format: in vivo; conditions: male, dog, plasma, 1 mg/kg single intravenous injection, read-out: Area under the concentration-time curve AUC
Value Kind: AUC

Q. Entry CC(C)(O)c1cc(F)c(-c2cnc(C(C)(C)O)c(N)c2)cc1N : reported AUC = ?
A. 4.67 µM·h

* * *

assay: Pharmacokinetics in cynomolgus monkeys, single intravenous injection; format: in vivo; conditions: male, cynomolgus monkey, plasma, 1 mg/kg single intravenous injection, read-out: Half-life T1/2 (converted)
Value Kind: half-life (h)
One number for each entry, in h.

Q. Entry CC(C)(O)c1cc(F)c(-c2cnc(C(C)(C)O)c(N)c2)cc1N [Compound represented by formula (I)] : reported half-life = ?
A. 3.91
